System: Mycobacterium tuberculosis strain H37Rv
assay-notes: microplate Alamar blue assay (MABA)
Assay type: cell-based
condition-details: Mycobacterium tuberculosis, H37RV, M. tuberculosis H37Rv; lowest concentration effecting 90% inhibition
endpoint: MIC (µg/mL)
Provide the reading as a plain figure in µg/mL.

Example molecules with recorded MIC:
>>> print(df.to_string())
                            compound_smiles  measure_unit  measured_value
0  CCCOC(=O)c1ccc2c(c1)[n+]([O-])c(C(=O)C(C)C)c(C(F)(F)F)[n+]2[O-]         µg/mL             1.5
1  CCOC(=O)Cc1c(C(=O)OCC)[n+]([O-])c2cc(C(=O)OC(C)C)ccc2[n+]1[O-]         µg/mL            3.41

Could you now look at the following molecule, please?
I would be grateful if you could share the reported MIC for `CCCOC(=O)c1ccc2no[n+]([O-])c2c1` .
0.87

Provenance of the data: paper PMC6099706
